// angiotensin IV receptor (Cavia porcellus) log10 of IC50 records
Where a name gives a salt, the structure may show the parent alone.
Form field - Quantity: IC50; Unit: nM; Scale: log10

Answered examples (4):
In [3]: df
Out[3]:
                                   compound                                  testedon  resultvalue
0  CCCC[C@H](N)CN[C@@H](Cc1ccc(O)cc1)C(=O)N[C@H](/C=C/c1ccc(-c2ccccc2)cc1)CC(C)C [Example 21, dihydrochloride]  angiotensin IV receptor (Cavia porcellus)         0.78
1  CCCC[C@H](N)CN[C@@H](Cc1ccc(O)cc1)C(=O)N[C@H](/C=C\c1ccc(Cl)cc1)CC(C)C [Example 20, dihydrochloride]  angiotensin IV receptor (Cavia porcellus)         0.74
2  CCCC[C@H](N)CN[C@@H](Cc1ccc(O)cc1)C(=O)N[C@H](/C=C\Cc1ccccc1)CC(C)C [Example 5, dihydrochloride]  angiotensin IV receptor (Cavia porcellus)         0.86
3  CCCC[C@H](N)CN[C@@H](Cc1ccc(O)cc1)C(=O)N[C@H](CC)CC(C)C [Example 26, dihydrochloride]  angiotensin IV receptor (Cavia porcellus)         1.59

IN: Param readout= log10 of IC50; system= angiotensin IV receptor (Cavia porcellus); entry= CCCC[C@H](N)CN[C@@H](Cc1ccc(O)cc1)C(=O)N[C@H](CCc1cccc2ccccc12)CC(C)C [Example 16, dihydrochloride] ; returns value.
OUT: 0.54

IN: // query: CCCC[C@H](N)CN[C@@H](Cc1ccc(O)cc1)C(=O)N[C@H](CCCc1ccccc1)CC(C)C [Example 6, dihydrochloride]
OUT: 1.26

IN: Check CCCCC[C@@H](NC(=O)[C@H](Cc1ccc(O)cc1)NC[C@@H](N)CCCC)[C@@H](C)CC [Example 4, dihydrochloride] too.
OUT: 1.06

IN: Now the compound CCCC[C@H](N)CN[C@@H](Cc1ccc(O)cc1)C(=O)N[C@H](CCc1ccc2ccccc2n1)CC(C)C [Example 24, dihydrochloride]
OUT: 0.58

====

Target: angiotensin IV receptor (Cavia porcellus, UniProt H0VNM7)
Sequence (H0VNM7 1-1025): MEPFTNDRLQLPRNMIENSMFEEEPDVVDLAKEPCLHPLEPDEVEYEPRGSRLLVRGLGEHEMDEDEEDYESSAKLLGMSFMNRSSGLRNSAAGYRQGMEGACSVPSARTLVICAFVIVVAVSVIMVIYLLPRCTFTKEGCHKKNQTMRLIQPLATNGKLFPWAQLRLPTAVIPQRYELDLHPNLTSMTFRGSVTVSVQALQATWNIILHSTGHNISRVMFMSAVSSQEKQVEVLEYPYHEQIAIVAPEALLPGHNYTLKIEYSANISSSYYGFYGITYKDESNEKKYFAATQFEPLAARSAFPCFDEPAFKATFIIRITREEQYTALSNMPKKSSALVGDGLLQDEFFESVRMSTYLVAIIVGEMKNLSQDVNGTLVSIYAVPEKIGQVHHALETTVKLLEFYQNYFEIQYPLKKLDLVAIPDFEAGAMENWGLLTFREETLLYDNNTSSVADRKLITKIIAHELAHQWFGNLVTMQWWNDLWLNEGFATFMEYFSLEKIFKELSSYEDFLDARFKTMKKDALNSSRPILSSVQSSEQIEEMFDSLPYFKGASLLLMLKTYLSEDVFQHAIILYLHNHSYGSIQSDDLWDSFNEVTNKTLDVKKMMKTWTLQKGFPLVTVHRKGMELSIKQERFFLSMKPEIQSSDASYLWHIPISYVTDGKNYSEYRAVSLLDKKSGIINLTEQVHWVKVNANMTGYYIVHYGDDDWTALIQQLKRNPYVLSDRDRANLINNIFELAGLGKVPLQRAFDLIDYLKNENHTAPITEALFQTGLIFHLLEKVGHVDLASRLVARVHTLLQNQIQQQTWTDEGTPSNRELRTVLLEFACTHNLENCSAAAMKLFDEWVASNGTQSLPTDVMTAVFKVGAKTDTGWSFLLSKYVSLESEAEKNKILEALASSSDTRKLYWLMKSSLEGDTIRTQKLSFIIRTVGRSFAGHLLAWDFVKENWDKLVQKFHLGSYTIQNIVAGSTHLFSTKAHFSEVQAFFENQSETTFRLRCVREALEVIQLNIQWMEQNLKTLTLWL
Counter-ions that a name gives are not always drawn.
Entries annotated with measured log10(IC50)
Please keep in mind that the values are log10 of IC50 expressed in nM.

Example entries and their recorded answers appear below.
>>> df
                                   compound  attributemeasured  resultvalue
0  CCCC[C@H](N)C(=O)N[C@H](CN[C@H](CCc1ccccc1)CC(C)C)Cc1ccc(O)cc1 [Example 28, dihydrochloride]        log10(IC50)         2.48
1  CCCC[C@H](N)C(=O)N[C@H](CN[C@H](/C=C/c1ccccc1)CC(C)C)Cc1ccc(O)cc1 [Example 27, dihydrochloride]        log10(IC50)         2.52
2  CCCC[C@H](N)CN[C@@H](Cc1ccc(O)cc1)C(=O)N[C@H](/C=C/c1ccc(C)cc1)[C@@H](C)CC [Example 1, dihydrochloride]        log10(IC50)        -0.23
3  CCCC[C@H](N)CN[C@H](CN[C@H](CCc1ccccc1)CC(C)C)Cc1ccc(O)cc1 [Example 30, trihydrochloride]        log10(IC50)         2.23
4  CCCC[C@H](N)CN[C@@H](Cc1ccc(O)cc1)C(=O)N[C@@H](/C=C/c1ccncc1)CC(C)C [Example 9, trihydrochloride]        log10(IC50)         1.34
5  CCCC[C@H](N)CN[C@@H](Cc1ccc(O)cc1)C(=O)N[C@H](/C=C/c1ccc(C(=O)O)cc1)CC(C)C [Example 13, dihydrochloride]        log10(IC50)         0.25

IN: What log10(IC50) appears in the records for this compound with angiotensin IV receptor (Cavia porcellus, UniProt H0VNM7)? CCCC[C@H](N)CN[C@@H](Cc1ccc(O)cc1)C(=O)N[C@H](CCc1ccncc1)CC(C)C [Example 8, trihydrochloride]
OUT: 1.18

IN: Now consider CCCC[C@H](N)CN[C@@H](Cc1ccc(O)cc1)C(=O)N[C@H](/C=C/c1ccccc1)CC(C)C [Example 17, dihydrochloride] and answer again.
OUT: -0.19

IN: // query: CCCC[C@H](N)CN[C@@H](Cc1ccc(O)cc1)C(=O)N[C@@H](CCc1ccncc1)CC(C)C [Example 10, trihydrochloride]
OUT: 1.91

The reported numbers originate from patent US6066672A.
